Cited source for all entries: patent US20220162261A1

- target-or-test-system: T1, rh integrin α4β7 (R&D Systems #5397-A30) (human, UniProt P13612 34-970; P26010 20-723)
- T1 construct: bought; coated on a nickel coated plate; also called immobilized α4β7; immobilized α4β7 integrin protein
- assay-text: competition ELISA vs MAdCAM-1
Bridge positions count the residues as written; N and C are the ends. Square brackets hold non-standard residues; d marks the D form. Phe(4-COOH) = N[C@@H](Cc1ccc(C(=O)O)cc1)C(=O)O; NMeR = CN[C@@H](CCCNC(=N)N)C(=O)O; β3hE = N[C@@H](CCC(=O)O)CC(=O)O; Pen = CC(C)(S)[C@H](N)C(=O)O
value-kind: IC50

{"binder": "Ac-[Pen][NMeR]SDTL[Pen]WEP[dK]-NH2 (disulfide 1-7; SMILES CC(=O)N[C@@H]1C(=O)N(C)[C@@H](CCCNC(=N)N)C(=O)N[C@@H](CO)C(=O)N[C@@H](CC(=O)O)C(=O)N[C@@H]([C@@H](C)O)C(=O)N[C@@H](CC(C)C)C(=O)N[C@H](C(=O)N[C@@H](Cc2c[nH]c3ccccc23)C(=O)N[C@@H](CCC(=O)O)C(=O)N2CCC[C@H]2C(=O)N[C@H](CCCCN)C(N)=O)C(C)(C)SSC1(C)C) [SEQ ID NO: 49]", "measured": "> 10 nM"}
{"binder": "Ac-[Pen][NMeR]SDTL[Pen][Phe(4-COOH)][β3hE][dK]-NH2 (disulfide 1-7; not fully specified (residue 10); printed as (Ac Pen N-Me-R S D T L Pen F(4-COOH) b-H-E k NH2)2 DIG, disulfide Pen-Pen; also: homodimer, two subunits joined by DIG linker) [SEQ ID NO: 130]", "measured": "≤ 10 nM"}
